Field: EC50 (read off the curve). Provide a value for each of the binders that follow.
- system: T1, cynomolgus monkey cell surface PD-1 (cynomolgus monkey, UniProt B0LAJ3 25-288)
- T1 construct: also called cynomolgous monkey PD-1
- T1 sequence (B0LAJ3 entry or part of it limits assumed): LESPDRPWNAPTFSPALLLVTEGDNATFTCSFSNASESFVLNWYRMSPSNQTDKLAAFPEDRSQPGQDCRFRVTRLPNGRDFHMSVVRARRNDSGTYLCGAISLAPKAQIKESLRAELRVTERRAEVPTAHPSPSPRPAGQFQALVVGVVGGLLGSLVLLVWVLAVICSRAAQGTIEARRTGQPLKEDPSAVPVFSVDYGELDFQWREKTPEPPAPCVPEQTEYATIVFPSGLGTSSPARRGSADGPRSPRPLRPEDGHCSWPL
- assay: flow cytometry on activated cynomolgus monkey PBMC, FITC-labeled anti-human IgG, MFI

{"binder": "anti-PD-1 human monoclonal antibody 17D8 (antibody, V domains shown, Fully human IgG with kappa light chain from a hybridoma (HuMab/KM mice)) VH: QVQLVESGGDVVQPGGSLRLSCAASGVAFSNYGMHWVRQAPGKGLEWVAVIWYDGSNKYYADSVKGRFTISRDNSKNMLYLQMNSLRAEDTAMYYCARNDDYWGQGTLVTVSS VL: EIVLTQSPATLSLSPGERATLSCRASQSVSSYLAWYQQKPGQAPRLIIYDASNRATGIPARFSGSGSGTDFTLTISSLEPEDFAVYYCQQRSNWPLTFGGGTKVEIK", "result": "~3 nM"}
{"binder": "anti-PD-1 human monoclonal antibody 2D3 (antibody, V domains shown, Fully human IgG with kappa light chain from a hybridoma) VH: QVQLVESGGDVVQPGRSLRLSCAASGLTFTNYGFHWVRQAPGKGLEWVAVIWYDGSKKYYADSVKGRFTISRDNSKNTLYLQMNNLRAEDTAVYYCATGDDYWGQGTLVTVSS VL: EIVLTQSPATLSLSPGERATLSCRASQSVSSYLAWYQQKPGQAPRLLIYDTSNRATGIPARFSGSGSGTDFTLTISSLEPEDFAVYYCQQRSNWPLTFGGGTKVEIK", "result": "~1 nM"}
{"binder": "anti-PD-1 human monoclonal antibody 4H1 (antibody, V domains shown, Fully human IgG with kappa light chain from a hybridoma) VH: QVYLVESGGGVVQPGRSLRLSCAASGFTFSNYGMHWVRQAPGKGLEWVALIWYDGSNKYYADSVKGRFTISRDNSKNTLYLQMTSLRVEDTAVYYCASNVDHWGQGTLVTVSS VL: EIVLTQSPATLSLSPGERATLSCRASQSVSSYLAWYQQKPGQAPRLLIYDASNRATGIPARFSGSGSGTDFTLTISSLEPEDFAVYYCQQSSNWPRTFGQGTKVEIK", "result": "~0.9 nM"}

--- query ---
What value of measured EC50 (read off the curve) is listed for anti-PD-1 human monoclonal antibody 5C4 (antibody, V domains shown, Fully human IgG with kappa light chain from a hybridoma; also called 5C4-IgG1; 5C4-IgG4) VH: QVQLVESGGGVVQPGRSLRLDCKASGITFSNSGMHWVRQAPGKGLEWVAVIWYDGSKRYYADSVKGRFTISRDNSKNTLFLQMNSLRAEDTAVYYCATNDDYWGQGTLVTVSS VL: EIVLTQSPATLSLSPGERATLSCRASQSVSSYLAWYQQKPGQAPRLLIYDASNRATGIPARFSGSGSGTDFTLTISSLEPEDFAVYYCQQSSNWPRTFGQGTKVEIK ? ~1 nM

The measurements presented in this section are drawn from patent US20150165025A1.
